Target: T1, PUF4 RNA-binding domain (Saccharomyces cerevisiae, UniProt P25339 537-888)
T1 sequence: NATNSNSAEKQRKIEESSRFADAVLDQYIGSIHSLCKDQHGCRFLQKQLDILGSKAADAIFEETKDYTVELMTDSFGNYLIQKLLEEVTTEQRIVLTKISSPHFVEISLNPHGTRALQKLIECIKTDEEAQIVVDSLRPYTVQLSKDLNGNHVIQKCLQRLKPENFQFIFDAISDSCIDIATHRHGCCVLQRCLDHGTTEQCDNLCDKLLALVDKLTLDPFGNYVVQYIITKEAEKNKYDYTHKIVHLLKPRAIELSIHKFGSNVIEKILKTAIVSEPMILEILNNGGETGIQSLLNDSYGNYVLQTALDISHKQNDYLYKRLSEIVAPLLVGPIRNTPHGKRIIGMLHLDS
Assay: Mg; RNA-MaP; 20 mM Na-HEPES pH 7.4, 30 mM KOAc, 0.75 mM MgCl2, 0.1% Tween-20, 5% glycerol, 0.1 mg/mL BSA, 2 mM DTT; 25 C; 0.0125-409.6 nM protein
Conditions: tags: N-His6-TEV cleaved; C-SNAP kept, Cy3B-labelled; label: tethered on chip by stalled RNA polymerase
measure: Kd (nM)
Supply the numeric figure in nM, leaving out any unit text.

1) Ic_S2_P3E.1_K3.1_C3.1_H3.1_A3.1_[T5A]_[A6C]_F3.1_[A8G]_T3.1 (ssRNA) RNA: UUUGAUUAAUAUGAUAUCGUUCUUUCUUGUAACUGUUCUUUCUCGAUAUCAUAUUAAUCUUU	101
2) Ie_S2_P3E.2_K3.1_C3.2_H3.1_A3.1_F3.1_[+8CCC]_T3.2 (ssRNA) RNA: UUUGAUUAAUAUGAUAUCGUUCUUUCUCUUGUAUAUACCCUAUUCUUUCUCGAUAUCAUAUUAAUCUUU	7.81

Next binder, please.
Kd for UCUCUUUGUAUAAGUAUCUCUU (ssRNA) [Ic_S1_P5E.1_K5.1_C5.1_H5.1_A5.1_[T6A]_F5.1_[T8G]_T5.1] ?
54

Hello, the source for this data is paper PMC9352680, in case you need it.
